Cited source for all entries: PubChem BioAssay (NCI)

- System: ACHN renal
- protocolText: NCI-60 one-dose screen, 48 h (100 = growth as untreated, 0 = no growth, -100 = all killed)
- measurementContext: 10 µM unless noted
About 83,000 compounds went through this panel and 20% of them were active in at least one assay; those are over-represented in the sample as a whole.
growth values by entry
State just the number; it will be interpreted in %.

input: If you can, please state the reported growth value of CC1=C([Se]CC(OC(=O)[C@@H](CO)NC(=O)OC(C)(C)C)C(=O)NC(C)(C)C)C(=O)c2ccccc2C1=O (stereo partly drawn) .
output: -100

Continuing:
input: Requested field: growth. Item: Cc1cccc(NC(=O)CSc2nc3ccccc3[nH]2)c1
output: 97.5

input: Need growth, item COc1ccc(Nc2nnc(SCc3ccccc3F)s2)cc1
output: 106

input: I have this molecule here, CCCCn1c(=O)c2c(nc(NCCc3ccc(O)c(O)c3)n2CCC)n(CCCC)c1=O , and I need its recorded growth.
output: 81

input: Which growth is listed for CC/C=C\C/C=C\C[C@H](O)C/C=C1/C(=O)C=C[C@@H]1C/C=C\CCCC(=O)O ?
output: 60.2

input: Using the record for c1ccc2c(c1)nc(CN1CCOCC1)n1cc(N3CCCC3)nc21 , report its growth.
output: 104

input: Reported growth for COC(=O)[C@]12CC[C@@H](C)[C@H](C)[C@@H]1C1=CC[C@@H]3[C@@]4(C)C(C=O)=C[C@@](C)(COC(=O)c5ccco5)[C@@H]4C(=O)C[C@@]3(C)[C@]1(C)CC2 : what is it?
output: 13.4

input: Suppose we examine the molecule COC(=O)CCC1=C(C)C2=NC1=CC1=NC(=CC3=NC(=Cc4[nH]c(/c(=C(/C)O)c4C)=C2)C(C(C)=O)=C3C)C(C)=C1CCC(=O)OC ; what growth value has been reported?
output: 103

input: Can you look up the measured growth of Fc1cnc(NC2CC2)nc1-c1cnc2ccc(N3CCOCC3)cn12 for me?
output: 3.03

input: I am curious: what growth value has been reported for COc1cc(C(=O)c2cc(C)c3[nH]c4ccc(Cl)cc4c3c2C)cc(OC)c1OC ?
output: 24.2

input: Reported growth, molecule Cc1cc(N2CCCC2)nc(NCc2cc(Nc3ccnc4cc(Cl)ccc34)ccc2F)n1 : ____
output: -72.3

input: Give the measured growth of CCc1c2c(nc3ccc(OC(=O)NCc4ccc(B5OC(C)(C)C(C)(C)O5)cc4)cc13)-c1cc3c(c(=O)n1C2)COC(=O)[C@]3(O)CC .
output: -61.5

input: Quick one: growth of CCN1C(=O)N(CC)C2Nn3c(s/c(=C\c4ccc(Cl)cc4Cl)c3=O)=NC21 (stereo not drawn) ?
output: 37.6

input: For the molecule O=C1CCC2=C3C4CCCCC4C(=O)C4CCCC(OC2C1)C34 (stereo not drawn) , what growth is on record?
output: -23.3

###

- System: HOP-92 NSCLC
- protocolText: NCI-60 one-dose screen, 48 h (100 = growth as untreated, 0 = no growth, -100 = all killed)
- measurementContext: 10 µM unless noted
The panel holds about 83,000 compounds, 20% with a hit somewhere; the sample as a whole holds those more often. Active and inactive are the calls of the source. How the source made its calls: active means growth percent below 10; inactive means the rest.
readoutLabel: growth

These solved cases illustrate the format of a correct answer.
input: Requested read-out: growth. Entry: C[n+]1cccc(CC(=O)NO)c1
output: 82.5% (inactive)

input: GET /values?readout=growth&item= Clc1cccc(Cl)c1/C=C/c1cc(/C=C/c2c(Cl)cccc2Cl)[nH]n1
output: 102% (inactive)

input: Please give the measured growth for this compound: Cc1occc1-c1n[nH]c(=S)n1N1C(=O)CSC1=S
output: 103% (inactive)

input: Please report the recorded growth for CCOc1ccccc1-n1c(CN2CCN(C(=O)COc3ccc(CNCCCCCCN4C5CCCC4CC(OC(=O)Nc4cc(C)ccc4OC)C5)cc3)CC2)nc2ccccc2c1=O (centres undefined) .
output: -90.2% (active)

input: State the recorded growth for this entry: O=C1Nc2ccccc2/C1=C/c1cn(C(=O)c2ccc(Cl)cc2)c2ccccc12
output: 99.3% (inactive)

input: What value of measured growth is listed for CNC(=O)c1cc(Oc2cccc3nc(Nc4ccc(F)c(Cl)c4)ccc23)ccn1 ?
output: 77.9% (inactive)

input: Give the measured growth of CC(C)=C[C@@H]1c2c(c3ccccc3n(C)c2=O)O[C@H]2c3c(c4ccccc4n(C)c3=O)OC(C)(C)[C@@H]12 .
output: -4.59% (active)

input: Looking for the measured growth of Cn1c2c(c3ccc(Cl)c(Cl)c31)C(C#N)C1(CCNCC1)NC2=O (centres undefined) , can you help?
output: 21.9% (inactive)

New cases:
input: Look at this compound and give its reported growth. N=C1C(c2nc(-c3ccc(Br)cc3)cs2)=C(O)CN1Cc1cccnc1
output: -47.3% (active)

###

- Tested on: NCI-H23 lung
- protocolText: NCI-60 one-dose screen, 48 h (100 = growth as untreated, 0 = no growth, -100 = all killed)
- measurementContext: 10 µM unless noted
The panel holds about 83,000 compounds, 20% with a hit somewhere; the sample as a whole holds those more often.
Entries whose growth is below 90% take Satisfied; entries at or above 90% take Not satisfied.

Examples from the recorded data:
input: Dear reviewer, please state whether COc1ccc(CNC(=O)C(O)C(Cc2ccccc2)NC(=O)c2[nH]c3ccccc3c(=O)c2C)cc1OC (stereo not given) has growth strictly beneath 90%.
output: Not satisfied

input: Is it true that growth reported for Cc1ccc(S(=O)(=O)N/N=C\c2cc(Cl)ccc2O)cc1 is less than 90%?
output: Not satisfied

Here's the next entry for you.
input: Hello, is growth of the following compound strictly smaller than 90%? CCOC(=O)c1ccc(N2NC(=O)/C(=C/c3ccc([N+](=O)[O-])o3)C2=O)cc1
output: Not satisfied

###

- System: HOP-62 NSCLC
- protocolText: NCI-60 one-dose screen, 48 h (100 = growth as untreated, 0 = no growth, -100 = all killed)
- measurementContext: 10 µM unless noted
The panel holds about 83,000 compounds, 20% with a hit somewhere; the sample as a whole holds those more often.
readoutLabel: growth (%)
Enter your answer as a number in %; do not include the unit.

Completed entries (count: 2):
input: GET /values?readout=growth&item= C=CCSc1nc2ccccc2cc1/C=N/O
output: 77.1

input: Item under review: Cc1c2c(c(C)c3c1oc1cc(O)ccc13)C(=O)N(CCN1CCCCC1)C2=O . Reported growth?
output: 80

More entries:
input: Endpoint output: growth of CCN1C(=O)N(CC)C2C1NN=c1s/c(=C\c3cccs3)c(=O)n12 (stereo not given) . Value?
output: 46.4

input: What does the data say about its growth? Entry: O=C1Nc2ccccc2/C1=C/c1cn(C(=O)c2c(Cl)cccc2Cl)c2ccccc12
output: 88.8

input: # get_value(readout='growth', item= CS(=O)(=O)c1ccc(Nc2nc(N[C@H]3CCCC[C@H]3N)nc3cc[nH]c(=O)c23)cc1 )
output: 21.1

###

- Test system: SW-620 colon
- protocolText: NCI-60 one-dose screen, 48 h
- measurementContext: 10 µM unless noted
The panel holds about 83,000 compounds, 20% with a hit somewhere; the sample as a whole holds those more often. The source made the active and inactive calls. Rule for the calls: active = growth percent below 10; inactive = the rest.
Please state which outcome applies, choosing from active, inactive

Some solved cases for reference:
input: Name the outcome recorded for COC(=O)c1ccc(CSc2nnc(-c3c(C)nc4ccc(C)cn34)o2)cc1 in the assay.
output: inactive

input: Identify the outcome logged in this assay for the molecule shown: COc1cc2c(cc1-c1c(C)noc1C)ncc1nc(C3CCC(F)(F)CC3)n(C3CCC(OC(F)F)CC3)c12 (stereo not given)
output: inactive

input: Query: recorded result category for CN(c1ccccc1)c1ccc2c(c1)OCCC21CC1Nc1cnccc1C(=O)O (stereo not given) in this test
output: inactive

input: I'd appreciate the recorded outcome for N#Cc1c(-c2ccccc2)cc(-c2ccc(Nc3nc(Nc4ccc(F)cc4)nc(Nc4ccc(F)cc4)n3)cc2)nc1N from this test.
output: inactive

input: For CCSC1=NC2C(N(CC)C(=O)N2CC)N1/N=C/C=C/c1ccccc1[N+](=O)[O-] (stereo not given) , which call appears in the assay record?
output: inactive

input: # outcome recorded in this test, key = Cn1c(-c2c(N)n(Cc3cccnc3)c3nc(C#N)c(C#N)nc23)nc2ccccc21
output: inactive

input: Short answer needed: outcome of this test for COC(=O)[C@H](CSC)N(C)C(=O)[C@@H]1CSSC[C@@H](NC(=O)c2nc3ccccc3cc2O)C(=O)NCC(=O)N1C ?
output: inactive

input: Which outcome was entered for the molecule CCOc1c(C#N)nnc2c(C#N)c(NC(=O)c3ccccc3)nn12 in this test?
output: inactive

input: What classification did CCCc1cc2c(=O)c(C(=O)OC)c[nH]c2cc1N(CC)CC end up with in this test?
output: inactive

input: Please let me know the test result on file for CCN(CCNc1ccc(C)c2sc3ccccc3c(=O)c12)CC(C)(C)O .
output: inactive

Continuing:
input: Hello, I am checking results. What call was entered for Nc1ccc2c(c1)c(N)nn2C(=O)Nc1ccc(Cc2ccccc2)cc1 ?
output: inactive

input: Tell me the recorded outcome of this test for Cc1ccc(Nc2nc(N)nc(CSCC(=O)NN)n2)cc1 .
output: inactive

input: So what was the verdict on CC(C)(C)n1cc(-c2ccnc(NCCCNS(=O)(=O)c3ccccc3)c2)c(-c2ccccc2)n1 in this test?
output: inactive

input: // outcome(item) with item = CC1(C)CC(=O)C2=C(C1)N(c1ccc(OC(F)(F)F)cc1)C(N)=C(C#N)C2c1ccc(Cl)cc1 (stereo not given)
output: inactive
